target_entity: human PPAR γ 2 (Homo sapiens)
assay_procedure: PPAR γ transcriptional activity, luciferase reporter, test compound alone
conditions: concentration indicating Emax/2, MG63 cells transfected with pSG5-hPPARg and pGV-P2-PPRE, 24 hr
Below, each of the compounds is paired with its reported EC50 value.
measurement_name: EC50

INSERT INTO results (test_smiles, result) VALUES
  ('O=C(Nc1c(Cl)ncnc1Cl)c1cc([N+](=O)[O-])ccc1Cl', '760 nM'),
  ('COC(=O)c1sccc1NC(=O)c1cc([N+](=O)[O-])ccc1Cl', '120 nM'),
  ('Cc1nc(NS(=O)(=O)c2ccc(NC(=O)c3cc([N+](=O)[O-])ccc3Cl)cc2)oc1C', '360 nM'),
  ('COc1cnc(NS(=O)(=O)c2ccc(NC(=O)c3cc([N+](=O)[O-])ccc3Cl)cc2)nc1', '87 nM'),
  ('N=C(N)NS(=O)(=O)c1ccc(NC(=O)c2cc([N+](=O)[O-])ccc2Cl)cc1', '49 nM'),
  ('O=C(Nc1ccc(NC(=S)Nc2cccnc2)cc1)c1cc([N+](=O)[O-])ccc1Cl', '120 nM'),
  ('CC(C)(C)c1cc(NC(=O)c2cc([N+](=O)[O-])ccc2Cl)cc(C(C)(C)C)c1O', '4.4 nM'),
  ('O=C(Nc1nnc(-c2ccccc2)s1)c1cc([N+](=O)[O-])ccc1Cl', '15 nM');

====

target_entity: human PPAR γ 2 (Homo sapiens, UniProt P37231)
Sequence (P37231 1-505): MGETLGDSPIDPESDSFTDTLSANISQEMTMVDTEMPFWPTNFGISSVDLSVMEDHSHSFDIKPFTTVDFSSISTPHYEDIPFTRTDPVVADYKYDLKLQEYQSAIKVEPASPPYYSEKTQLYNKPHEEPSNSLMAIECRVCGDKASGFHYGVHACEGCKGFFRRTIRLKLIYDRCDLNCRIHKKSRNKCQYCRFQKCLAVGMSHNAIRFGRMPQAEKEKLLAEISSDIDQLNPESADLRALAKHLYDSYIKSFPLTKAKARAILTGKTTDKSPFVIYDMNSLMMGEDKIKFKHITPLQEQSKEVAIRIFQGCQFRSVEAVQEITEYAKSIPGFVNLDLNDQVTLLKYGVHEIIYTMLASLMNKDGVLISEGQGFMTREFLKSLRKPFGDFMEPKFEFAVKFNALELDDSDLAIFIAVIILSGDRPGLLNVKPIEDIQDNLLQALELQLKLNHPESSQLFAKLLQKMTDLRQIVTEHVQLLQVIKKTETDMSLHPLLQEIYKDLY
assay_procedure: Inhibitory activity against PPAR γ transcription in the presence of agonist compound A, luciferase reporter
conditions: in the presence of 10 nM compound A (agonist); MG63 cells transfected with pSG5-hPPARg and pGV-P2-PPRE; 24 hr
# IC50 binned as bin 0 = under 30 nM, bin 1 = from 30 nM up to 100 nM, bin 2 = 100 nM and over

INSERT INTO measurements (test_smiles, target_entity, qualitative_label) VALUES
  ('N#Cc1ccc(NC(=O)c2cc([N+](=O)[O-])ccc2Cl)cc1', 'human PPAR γ 2 (Homo sapiens, UniProt P37231)', 'bin 0'),
  ('Cn1c(NC(=O)c2cc([N+](=O)[O-])ccc2Cl)nc2ccccc21', 'human PPAR γ 2 (Homo sapiens, UniProt P37231)', 'bin 2'),
  ('Cc1ccc(NC(=O)c2cc([N+](=O)[O-])ccc2Cl)nc1', 'human PPAR γ 2 (Homo sapiens, UniProt P37231)', 'bin 2'),
  ('O=C(Nc1ccc(-c2ccc(NC(=O)c3cc([N+](=O)[O-])ccc3Cl)cc2)cc1)c1ccncc1', 'human PPAR γ 2 (Homo sapiens, UniProt P37231)', 'bin 0'),
  ('Cc1cccc(NC(=O)c2cc([N+](=O)[O-])ccc2Cl)n1', 'human PPAR γ 2 (Homo sapiens, UniProt P37231)', 'bin 2'),
  ('O=C(Nc1nc(-c2cccc3ccccc23)cs1)c1cc([N+](=O)[O-])ccc1Cl', 'human PPAR γ 2 (Homo sapiens, UniProt P37231)', 'bin 1'),
  ('O=C(Nc1nc(-c2ccc(F)c(F)c2)cs1)c1cc([N+](=O)[O-])ccc1Cl', 'human PPAR γ 2 (Homo sapiens, UniProt P37231)', 'bin 0'),
  ('Cc1ccc(S(=O)(=O)Nc2ccc(NC(=O)c3cc([N+](=O)[O-])ccc3Cl)cc2)cc1', 'human PPAR γ 2 (Homo sapiens, UniProt P37231)', 'bin 1'),
  ('O=C(Nc1cnccn1)c1cc([N+](=O)[O-])ccc1Cl', 'human PPAR γ 2 (Homo sapiens, UniProt P37231)', 'bin 2'),
  ('CS(=O)(=O)N(c1ccc(-c2ccc(NC(=O)c3cc([N+](=O)[O-])ccc3Cl)cc2)cc1)S(C)(=O)=O', 'human PPAR γ 2 (Homo sapiens, UniProt P37231)', 'bin 0'),
  ('CCCCCCCCN(CC)c1ccc(-c2ccc(NC(=O)c3cc([N+](=O)[O-])ccc3Cl)cc2)cc1', 'human PPAR γ 2 (Homo sapiens, UniProt P37231)', 'bin 2'),
  ('Cc1ccc2nc(-c3ccc(NC(=O)c4cc([N+](=O)[O-])ccc4Cl)cc3)sc2c1', 'human PPAR γ 2 (Homo sapiens, UniProt P37231)', 'bin 1'),
  ('O=C(Nc1nnc(-c2ccccc2)s1)c1cc([N+](=O)[O-])ccc1Cl', 'human PPAR γ 2 (Homo sapiens, UniProt P37231)', 'bin 2'),
  ('O=C(Nc1ccc(-c2ccc(N3CCCCC3)cc2)cc1)c1cc([N+](=O)[O-])ccc1Cl', 'human PPAR γ 2 (Homo sapiens, UniProt P37231)', 'bin 1'),
  ('O=C(Nc1ccc(-c2ccc(NC(=O)c3cc([N+](=O)[O-])ccc3Cl)cc2)cc1)c1ccccc1', 'human PPAR γ 2 (Homo sapiens, UniProt P37231)', 'bin 0'),
  ('Cc1noc(NS(=O)(=O)c2ccc(NC(=O)c3cc([N+](=O)[O-])ccc3Cl)cc2)c1C', 'human PPAR γ 2 (Homo sapiens, UniProt P37231)', 'bin 2');

====

Tested on: Rat white adipocytes
assay_procedure: Inhibition of the differentiation of adipocytes (Oil Red O)
Type: cell-based
conditions: Rattus norvegicus, Adipocyte, 120 h, 100 nM test compound; 5 days; Oil Red O ABS550; control = 100%, blank = 0%; Table 3; read-out: Rate of Differentiation (%)
Where a name gives a salt, the structure may show the parent alone.
Classification field: condition met = activity at 0.1 µM at or over 50%; condition not met = activity at 0.1 µM under 50%.

INSERT INTO results (molecule, qualitative_label) VALUES
  ('O=C(Nc1ccc(-c2ccc(NC(=O)c3cc([N+](=O)[O-])ccc3Cl)cc2)cc1)Nc1ccc(F)cc1F [Example 249]', 'condition met'),
  ('CCCCCN(C)c1ccc(-c2ccc(NC(=O)c3cc([N+](=O)[O-])ccc3Cl)cc2)cc1 [Example 215]', 'condition not met'),
  ('O=C(Nc1ccc(Cl)nc1)c1cc([N+](=O)[O-])ccc1Cl [Example 62]', 'condition met'),
  ('CCCCCCN(CC)c1ccc(-c2ccc(NC(=O)c3cc([N+](=O)[O-])ccc3Cl)cc2)cc1 [Example 197]', 'condition not met'),
  ('CC(O)c1cccc(NC(=O)c2cc([N+](=O)[O-])ccc2Cl)c1 (stereo not shown) [Example 239]', 'condition met'),
  ('CC(=O)c1ccc(NC(=O)c2cc([N+](=O)[O-])ccc2Cl)cc1 [Example 155]', 'condition met'),
  ('O=C(Nc1ncc(Br)cn1)c1cc([N+](=O)[O-])ccc1Cl [Example 77]', 'condition met'),
  ('Nc1ccc(NC(=O)c2cc([N+](=O)[O-])ccc2Cl)cc1 [Example 58, mono-hydrochloride]', 'condition met'),
  ('CCCCCCCCN(CCC)c1ccc(-c2ccc(NC(=O)c3cc([N+](=O)[O-])ccc3Cl)cc2)cc1 [Example 224]', 'condition not met'),
  ('CN1c2ccccc2N=C(c2ccc(NC(=O)c3cc([N+](=O)[O-])ccc3Cl)cc2)c2cc3c(cc21)C(C)(C)CCC3(C)C [Example 240]', 'condition not met'),
  ('CCN(C)c1ccc(-c2ccc(NC(=O)c3cc([N+](=O)[O-])ccc3Cl)cc2)cc1 [Example 218]', 'condition not met'),
  ('COc1cccc(NC(=O)Nc2ccc(-c3ccc(NC(=O)c4cc([N+](=O)[O-])ccc4Cl)cc3)cc2)c1 [Example 247]', 'condition met'),
  ('CC(C)(C)OC(=O)N1CCN(c2ccc(NC(=O)c3cc([N+](=O)[O-])ccc3Cl)cc2)CC1 [Example 132]', 'condition not met'),
  ('O=C(Nc1ccc(NC(=O)c2cc([N+](=O)[O-])ccc2Cl)nc1)c1cc([N+](=O)[O-])ccc1Cl [Example 64]', 'condition met'),
  ('N#Cc1cccc(NC(=O)c2cc([N+](=O)[O-])ccc2Cl)c1 [Example 21]', 'condition met');

Where do the numbers come from? From patent US20030134859A1.
